- ASSAY_OVERVIEW: Intrinsic clearance in human liver microsomes in presence of NADPH by LC-MS/MS method
- Format: ADME, microsome
- CONDITION_CONTEXT: read-out: CLH
Rule for this label: condition met means microsomal CLint is less than 50 µL/min/mg; condition not met means microsomal CLint is at least 50 µL/min/mg.

Given the entry C/C(=N\NC(=N)N)c1ccc(NC(=O)Nc2ccc(OC3CCCCCC3)cc2)cc1 , would its reported microsomal CLint be below 50 µL/min/mg?
condition met

Given the entry Cc1ncc2n1-c1ccc(Cl)cc1C(c1ccccc1F)=NC2 [MIDAZOLAM] , would its reported microsomal CLint be below 50 µL/min/mg?
condition not met

Given the entry CCCCc1ccc(NC(=O)Nc2ccc(/C(C)=N/NC(=N)N)cc2)cc1 , would its reported microsomal CLint be below 50 µL/min/mg?
condition not met

Given the entry C/C(=N\NC(=N)N)c1ccc(NC(=O)Nc2ccc(C(C)(C)C)cc2)cc1 , would its reported microsomal CLint be below 50 µL/min/mg?
condition met

Given the entry CC(=O)CC(c1ccccc1)c1c(O)c2ccccc2oc1=O (stereo unspecified) [WARFARIN] , would its reported microsomal CLint be below 50 µL/min/mg?
condition met
